- experimental system: Muscarinic acetylcholine receptors; M2 & M3 (Homo sapiens) (UniProt P20309+P08172)
- assay procedure: Selectivity ratio of Ki for human muscarinic M3 receptor expressed in CHO-K9 cells to Ki for human muscarinic M2 receptor expressed in CHO-K9 cells
- Assay type: cell-based
In plain terms, low Ratio Ki, meaning strictly below 300, gives T, and everything else gives F.

Sample answers from the record:
# compound structure string, discrete label
records = [
    ("CC(=O)N[C@@H](CCCCN)C(=O)N[C@@H](C)C(=O)N[C@@H](CCCNC(=N)N)C(=O)NCCN1CCN(CCCCC2CCN(CC(=O)N3c4ccccc4NC(=O)c4ccccc43)CC2)CC1", "F"),
    ("CC(=O)N[C@@H](CCCCN)C(=O)N[C@@H](C)C(=O)N[C@@H](Cc1ccc(O)cc1)C(=O)NCCCCC1CCN(CC(=O)N2c3ccccc3NC(=O)c3ccccc32)CC1", "T"),
    ("CC(=O)N[C@@H](Cc1c[nH]c2ccccc12)C(=O)N[C@@H](C)C(=O)N[C@@H](Cc1ccc(O)cc1)C(=O)NCCN1CCN(CCCCC2CCN(CC(=O)N3c4ccccc4NC(=O)c4ccccc43)CC2)CC1", "F"),
    ("CC(=O)N[C@@H](CCCCN)C(=O)N[C@@H](C)C(=O)N[C@@H](Cc1ccc(O)cc1)C(=O)NCCN1CCN(CCCCC2CCN(CC(=O)N3c4ccccc4NC(=O)c4ccccc43)CC2)CC1", "T"),
]

In: Below 300 on Ratio Ki? Entry CC(=O)N[C@@H](CCCCN)C(=O)N[C@@H](CCCNC(=N)N)C(=O)NCC(=O)NCCCCC1CCN(CC(=O)N2c3ccccc3NC(=O)c3ccccc32)CC1
Out: T

In: Try this compound too: CC(=O)N[C@@H](C)C(=O)N[C@@H](C)C(=O)NCCCCC1CCN(CC(=O)N2c3ccccc3NC(=O)c3ccccc32)CC1
Out: T

In: Try CCC(=O)NCc1cc(C(=O)NCCN2CCC(N3CCC(n4c(=O)[nH]c5ccccc54)CC3)CC2)cc(C(=O)NCCN2CCN(CCCCC3CCN(CC(=O)N4c5ccccc5NC(=O)c5ccccc54)CC3)CC2)c1 next.
Out: T

In: # repeat for CC(=O)N[C@@H](CCCCN)C(=O)N[C@@H](C)C(=O)N[C@@H](CCCNC(=N)N)C(=O)NCCCCC1CCN(CC(=O)N2c3ccccc3NC(=O)c3ccccc32)CC1
Out: F

In: Try the compound CC(=O)N[C@@H](CCC(N)=O)C(=O)N[C@@H](CC(C)C)C(=O)NCCN1CCN(CCCCC2CCN(CC(=O)N3c4ccccc4NC(=O)c4ccccc43)CC2)CC1
Out: T

In: Same for CC(=O)N[C@@H](CCCCN)C(=O)N[C@@H](Cc1ccc(O)cc1)C(=O)NCCN1CCN(CCCCC2CCN(CC(=O)N3c4ccccc4NC(=O)c4ccccc43)CC2)CC1
Out: T

In: // same read-out, input: CN1CC=C(c2nsnc2OCCCN2CCN(CCCCC3CCN(CC(=O)N4c5ccccc5NC(=O)c5ccccc54)CC3)CC2)CC1
Out: T

In: Now consider CC(=O)N[C@@H](Cc1ccc(O)cc1)C(=O)N[C@@H](CCCCN)C(=O)NCCCCC1CCN(CC(=O)N2c3ccccc3NC(=O)c3ccccc32)CC1 and answer again.
Out: T

In: Also, CC(=O)N[C@@H](Cc1ccc(O)cc1)C(=O)N[C@@H](C)C(=O)N[C@@H](CCCCN)C(=O)NCCCCC1CCN(CC(=O)N2c3ccccc3NC(=O)c3ccccc32)CC1 please.
Out: F

In: Would you kindly repeat that for CC(=O)N[C@@H](Cc1c[nH]c2ccccc12)C(=O)N[C@@H](Cc1ccc(O)cc1)C(=O)NCCCCC1CCN(CC(=O)N2c3ccccc3NC(=O)c3ccccc32)CC1 ?
Out: T

In: Also need CC(=O)N[C@@H](Cc1ccc(O)cc1)C(=O)N[C@@H](CCCCN)C(=O)NCCN1CCN(CCCCC2CCN(CC(=O)N3c4ccccc4NC(=O)c4ccccc43)CC2)CC1 , thanks.
Out: T

In: Next compound up: CC(=O)N[C@@H](CCCNC(=N)N)C(=O)N[C@@H](CCCCN)C(=O)NCCCCC1CCN(CC(=O)N2c3ccccc3NC(=O)c3ccccc32)CC1
Out: F

In: Then what about the compound CC(=O)N[C@@H](Cc1c[nH]c2ccccc12)C(=O)N[C@@H](Cc1ccc(O)cc1)C(=O)NCCN1CCN(CCCCC2CCN(CC(=O)N3c4ccccc4NC(=O)c4ccccc43)CC2)CC1 ?
Out: T

In: How about this compound: CC(=O)N[C@@H](Cc1ccc(O)cc1)C(=O)N[C@@H](C)C(=O)N[C@@H](CCCCN)C(=O)NCCN1CCN(CCCCC2CCN(CC(=O)N3c4ccccc4NC(=O)c4ccccc43)CC2)CC1
Out: T

In: For CC(=O)N[C@@H](CCCCN)C(=O)N[C@@H](CCCNC(=N)N)C(=O)NCCN1CCN(CCCCC2CCN(CC(=O)N3c4ccccc4NC(=O)c4ccccc43)CC2)CC1 then?
Out: F

In: Try CC(=O)N[C@@H](CCCCN)C(=O)N[C@@H](Cc1ccc(O)cc1)C(=O)NCCCCC1CCN(CC(=O)N2c3ccccc3NC(=O)c3ccccc32)CC1 next.
Out: F

In: Check CC(=O)N[C@@H](CCC(N)=O)C(=O)N[C@@H](C)C(=O)N[C@@H](CC(C)C)C(=O)NCCN1CCN(CCCCC2CCN(CC(=O)N3c4ccccc4NC(=O)c4ccccc43)CC2)CC1 too.
Out: F

Reference source for all entries: ChEMBL document CHEMBL4396879
